Molecular target: T1, mouse tissue factor pathway inhibitor (TFPI) (mouse, UniProt O54819 29-289, limits assumed)
T1 construct: bought; also called mTFPI; murine TFPI
T1 sequence (looked up): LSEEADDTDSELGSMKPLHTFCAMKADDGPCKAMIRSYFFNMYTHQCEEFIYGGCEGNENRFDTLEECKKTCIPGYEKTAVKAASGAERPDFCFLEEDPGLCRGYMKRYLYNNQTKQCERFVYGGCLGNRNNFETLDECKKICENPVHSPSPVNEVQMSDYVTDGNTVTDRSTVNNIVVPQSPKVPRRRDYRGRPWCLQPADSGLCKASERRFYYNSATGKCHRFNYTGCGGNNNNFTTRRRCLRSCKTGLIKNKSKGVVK
Experiment: competitive ELISA
readoutType: variant/HC_D62R (ratio)
Report the value in ratio with no unit label.

4B7 HC N32D+D62R+H107M+Y112D/LC F31M+S32R+D33F+D97T (Fab, V domains shown) VH: QVQLQQSGPGLVKPSQTLSLTCAISGDSVSSDSAAWSWIRQSPGRGLEWLGIIYKRSKWYNRYAVSVKSRITINPDTSKNQFSLQLNSVTPEDTAVYYCARWHSDKMWGFDDWGQGTLVTVSS VL: DIVMTQSPLSLPVTPGEPASISCRSSQSLVMRFGNTYLNWYLQKPGQSPQLLIYKGSNRASGVPDRFSGSGSGTDFTLKISRVEAEDVGVYYCQQYTSYPLTFGQGTKVEIKR; 16.5

Request: # get_value(readout='variant/HC_D62R', item= 4B7 HC N32D+D62R+Y112D/LC F31H+S32R+D33F+N35I+D97T (Fab, V domains shown) VH: QVQLQQSGPGLVKPSQTLSLTCAISGDSVSSDSAAWSWIRQSPGRGLEWLGIIYKRSKWYNRYAVSVKSRITINPDTSKNQFSLQLNSVTPEDTAVYYCARWHSDKHWGFDDWGQGTLVTVSS VL: DIVMTQSPLSLPVTPGEPASISCRSSQSLVHRFGITYLNWYLQKPGQSPQLLIYKGSNRASGVPDRFSGSGSGTDFTLKISRVEAEDVGVYYCQQYTSYPLTFGQGTKVEIKR )
Result: 15.2

Request: # get_value(readout='variant/HC_D62R', item= 4B7 HC N32D+D62R+H103D+H107M+Y112D/LC S32R (Fab, V domains shown) VH: QVQLQQSGPGLVKPSQTLSLTCAISGDSVSSDSAAWSWIRQSPGRGLEWLGIIYKRSKWYNRYAVSVKSRITINPDTSKNQFSLQLNSVTPEDTAVYYCARWDSDKMWGFDDWGQGTLVTVSS VL: DIVMTQSPLSLPVTPGEPASISCRSSQSLVFRDGNTYLNWYLQKPGQSPQLLIYKGSNRASGVPDRFSGSGSGTDFTLKISRVEAEDVGVYYCQQYDSYPLTFGQGTKVEIKR )
Result: 16

Source listed as patent USRE47150.
